Give measured protein stability index for each item. Keep answers brief.
B1: SOAT2 (parent)
chain: SLGKQKVFIIRKSLLDELMEVQHF

variants of: B1; assay: protein stability index of a GFP-peptide fusion (GPS, HEK-293T) (PSI 1-6); higher = more stable; settings: c terminus: a fixed tail appended;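 also: lentivirally expressed fusions sorted by FACS into six bins by GFP to DsRed ratio, PSI derived from sequencing read proportions per bin multiplied by bin number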

Q22T = 3.05
V21L = 2

Continue with the variant presented below.
Problem: // query protein stability index value for entry `K6P`
Solution: 1.96
